- TARGET: CDK12/CycK complex (Homo sapiens, UniProt Q9NYV4)
- Sequence (Q9NYV4 whole entry, species assumed): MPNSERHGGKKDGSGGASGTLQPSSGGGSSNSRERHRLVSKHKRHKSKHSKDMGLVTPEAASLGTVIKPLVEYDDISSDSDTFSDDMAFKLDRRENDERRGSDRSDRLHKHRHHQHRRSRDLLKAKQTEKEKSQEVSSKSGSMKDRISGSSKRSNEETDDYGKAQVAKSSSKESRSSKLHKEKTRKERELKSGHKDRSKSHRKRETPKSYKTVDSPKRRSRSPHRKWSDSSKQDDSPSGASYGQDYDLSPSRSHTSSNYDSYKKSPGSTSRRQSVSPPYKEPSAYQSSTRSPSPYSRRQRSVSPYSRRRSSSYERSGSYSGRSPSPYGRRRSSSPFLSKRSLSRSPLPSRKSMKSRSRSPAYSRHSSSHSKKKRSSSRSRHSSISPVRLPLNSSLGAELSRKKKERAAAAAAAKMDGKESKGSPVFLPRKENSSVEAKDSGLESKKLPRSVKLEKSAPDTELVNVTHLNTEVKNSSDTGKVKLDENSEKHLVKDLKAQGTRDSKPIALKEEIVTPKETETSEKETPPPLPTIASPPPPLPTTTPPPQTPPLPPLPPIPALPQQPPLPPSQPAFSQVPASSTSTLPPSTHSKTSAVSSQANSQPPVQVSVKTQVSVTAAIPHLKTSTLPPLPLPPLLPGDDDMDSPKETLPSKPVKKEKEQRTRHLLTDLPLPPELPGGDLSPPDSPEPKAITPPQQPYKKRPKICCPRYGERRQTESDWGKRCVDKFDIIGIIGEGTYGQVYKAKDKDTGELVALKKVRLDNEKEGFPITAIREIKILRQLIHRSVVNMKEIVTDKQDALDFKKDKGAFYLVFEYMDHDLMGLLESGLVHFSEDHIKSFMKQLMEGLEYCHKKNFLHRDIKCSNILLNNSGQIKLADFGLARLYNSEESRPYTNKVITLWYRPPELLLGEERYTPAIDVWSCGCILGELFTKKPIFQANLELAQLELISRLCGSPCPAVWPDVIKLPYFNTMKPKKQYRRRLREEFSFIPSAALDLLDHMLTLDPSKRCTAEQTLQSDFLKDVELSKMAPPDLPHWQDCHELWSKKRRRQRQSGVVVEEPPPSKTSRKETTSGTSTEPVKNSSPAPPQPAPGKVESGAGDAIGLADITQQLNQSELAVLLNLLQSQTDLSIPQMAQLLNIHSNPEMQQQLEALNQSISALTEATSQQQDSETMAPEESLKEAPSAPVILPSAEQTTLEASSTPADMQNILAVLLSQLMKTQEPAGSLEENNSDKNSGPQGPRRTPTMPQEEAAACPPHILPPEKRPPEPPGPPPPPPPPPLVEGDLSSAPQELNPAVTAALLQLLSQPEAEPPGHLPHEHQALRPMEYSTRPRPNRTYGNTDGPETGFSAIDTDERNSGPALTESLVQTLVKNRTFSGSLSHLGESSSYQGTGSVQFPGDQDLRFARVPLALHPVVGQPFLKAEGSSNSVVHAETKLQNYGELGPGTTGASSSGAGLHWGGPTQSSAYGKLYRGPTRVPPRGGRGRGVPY
- Sequence (O75909 whole entry partner, species assumed): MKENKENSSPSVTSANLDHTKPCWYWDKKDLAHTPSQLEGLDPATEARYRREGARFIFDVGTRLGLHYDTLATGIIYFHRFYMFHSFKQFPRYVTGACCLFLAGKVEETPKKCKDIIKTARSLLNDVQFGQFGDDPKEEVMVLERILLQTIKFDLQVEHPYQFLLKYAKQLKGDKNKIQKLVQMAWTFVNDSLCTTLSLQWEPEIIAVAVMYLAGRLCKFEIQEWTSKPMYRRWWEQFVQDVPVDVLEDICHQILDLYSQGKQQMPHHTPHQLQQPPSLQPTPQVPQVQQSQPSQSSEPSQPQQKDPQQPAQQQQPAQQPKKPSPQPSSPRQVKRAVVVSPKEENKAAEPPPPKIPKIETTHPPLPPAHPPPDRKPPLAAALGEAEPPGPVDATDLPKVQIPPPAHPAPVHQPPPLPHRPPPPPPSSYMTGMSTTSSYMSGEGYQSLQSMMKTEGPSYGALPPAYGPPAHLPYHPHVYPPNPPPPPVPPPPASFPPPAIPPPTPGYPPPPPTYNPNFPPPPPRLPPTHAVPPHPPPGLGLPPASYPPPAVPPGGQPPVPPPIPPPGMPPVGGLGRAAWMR
- EXPERIMENT DESCRIPTION: Measurement of CDK12 inhibitory activity by binding assay (BODIPY-FL labeled AT-7519 high concentration conditions, 1320 nM)
- CONDITION LABEL: inhibitory rate against CDK12 at 1 μM test compound, 1320 nM BODIPY-FL-labeled AT-7519, 8 nM CDK12/CycK
EXPERIMENTAL READOUT: inhibition at 1 µM (%)

>  <COMPOUND>
CCCC(=O)N(c1ccc(-c2cnc(OC)nc2)cn1)[C@H]1CC[C@H](Nc2ncc(C(F)(F)F)c(-c3cncc(S(C)(=O)=O)c3)n2)CC1 [Example 858]

>  <TARGET>
CDK12/CycK complex (Homo sapiens, UniProt Q9NYV4)

>  <UNIT SPEC>
%

>  <OBSERVED RESULT>
109

$$$$
>  <COMPOUND>
COc1ncc(-c2cnc(N(C(=O)NCc3ccccc3)[C@H]3CC[C@H](Nc4ncc(C(F)(F)F)c(OC5COC5)n4)CC3)cn2)cn1 [Example 612]

>  <TARGET>
CDK12/CycK complex (Homo sapiens, UniProt Q9NYV4)

>  <UNIT SPEC>
%

>  <OBSERVED RESULT>
100

$$$$
>  <COMPOUND>
COCC(=O)N(c1cnc(-c2cnc(OC)nc2)cn1)[C@H]1CC[C@H](Nc2ncc(C(F)(F)F)c(-c3n[nH]cc3Cl)n2)CC1 [Example 796]

>  <TARGET>
CDK12/CycK complex (Homo sapiens, UniProt Q9NYV4)

>  <UNIT SPEC>
%

>  <OBSERVED RESULT>
95

$$$$
